- Test system: 349418-098-R-PDC complex spheroid viability
- RUN_DESCRIPTION: Anticancer human tumor 349418-098-R-PDC patient-derived lung adenocarcinoma cell line growth inhibition [RAS]
- CONDITION_LABEL: second compound 0.01 µM; first compound 1 µM; active compounds read low
READOUT_NAME: viability, T/C (%)
Output spec: scalar in %, unitless text.

Worked examples follow.
MOLECULE: C[C@@H](NC(=O)c1ncnc(N)c1Cl)c1ncc(C(=O)Nc2cc(C(F)(F)F)c(Cl)cn2)s1 + C=CC(=O)N1CCN(c2nc(OCC3CCCN3C)nc3c(F)c(-c4nc(N)cc(C)c4C(F)(F)F)c(Cl)cc23)C(C)C1
viability, T/C / %: 59.1
//
MOLECULE: Nc1ccn(C2OC(CO)C(O)C2(F)F)c(=O)n1 (configuration not stated) + C=CC(=O)N1CCN(c2nc(OCC3CCCN3C)nc3c(F)c(-c4nc(N)cc(C)c4C(F)(F)F)c(Cl)cc23)C(C)C1
viability, T/C / %: 5.2
//
MOLECULE: Cc1nc(N2CCC3(CC2)COC(C)C3N)c(CO)nc1Sc1ccnc(N)c1Cl (configuration not stated) + C=CC(=O)N1CCN(c2nc(OCC3CCCN3C)nc3c(F)c(-c4nc(N)cc(C)c4C(F)(F)F)c(Cl)cc23)C(C)C1
viability, T/C / %: 92.5
//
MOLECULE: C=CC(=O)Nc1cc(Nc2nccc(-c3cn(C)c4ccccc34)n2)c(OC)cc1N(C)CCN(C)C + C=CC(=O)N1CCN(c2nc(OCC3CCCN3C)nc3c(F)c(-c4nc(N)cc(C)c4C(F)(F)F)c(Cl)cc23)C(C)C1
viability, T/C / %: 56.6

Returns the measured viability, T/C for the input molecule. Input: O=C(c1ccc(F)c(F)c1Nc1ccc(I)cc1F)N1CC(O)([C@@H]2CCCCN2)C1 + C=CC(=O)N1CCN(c2nc(OCC3CCCN3C)nc3c(F)c(-c4nc(N)cc(C)c4C(F)(F)F)c(Cl)cc23)C(C)C1
4.54

Returns the measured viability, T/C for the input molecule. Input: NC1c2ccccc2OC12CCN(c1cnc3c(N4CCCc5ncccc54)n[nH]c3n1)CC2 (configuration not stated) + C=CC(=O)N1CCN(c2nc(OCC3CCCN3C)nc3c(F)c(-c4nc(N)cc(C)c4C(F)(F)F)c(Cl)cc23)C(C)C1
72.9

Returns the measured viability, T/C for the input molecule. Input: CC(C)NCC(C(=O)N1CCN(c2ncnc3c2C(C)CC3O)CC1)c1ccc(Cl)cc1 (configuration not stated) + C=CC(=O)N1CCN(c2nc(OCC3CCCN3C)nc3c(F)c(-c4nc(N)cc(C)c4C(F)(F)F)c(Cl)cc23)C(C)C1
23.7

Returns the measured viability, T/C for the input molecule. Input: CC(=O)OC12COC1CC(O)C1(C)C(=O)C(O)C3=C(C)C(OC(=O)C(O)C(NC(=O)OC(C)(C)C)c4ccccc4)CC(O)(C(OC(=O)c4ccccc4)C21)C3(C)C (configuration not stated) + C=CC(=O)N1CCN(c2nc(OCC3CCCN3C)nc3c(F)c(-c4nc(N)cc(C)c4C(F)(F)F)c(Cl)cc23)C(C)C1
20.7

Returns the measured viability, T/C for the input molecule. Input: CC1(O)CCCC1n1c(=O)c(C(F)F)cc2cnc(NC3CCN(S(C)(=O)=O)CC3)nc21 (configuration not stated) + C=CC(=O)N1CCN(c2nc(OCC3CCCN3C)nc3c(F)c(-c4nc(N)cc(C)c4C(F)(F)F)c(Cl)cc23)C(C)C1
17.8

Returns the measured viability, T/C for the input molecule. Input: CC(Nc1ccc2c(c1)OCCn1cc(N3C(=O)OCC3C(F)F)nc1-2)C(N)=O (configuration not stated) + C=CC(=O)N1CCN(c2nc(OCC3CCCN3C)nc3c(F)c(-c4nc(N)cc(C)c4C(F)(F)F)c(Cl)cc23)C(C)C1
17.8

Returns the measured viability, T/C for the input molecule. Input: CCC(CC)c1cc(NC2CCC(N)C2)n2nccc2n1 (configuration not stated) + C=CC(=O)N1CCN(c2nc(OCC3CCCN3C)nc3c(F)c(-c4nc(N)cc(C)c4C(F)(F)F)c(Cl)cc23)C(C)C1
53.8

Returns the measured viability, T/C for the input molecule. Input: CCN1CCN(Cc2ccc(Nc3ncc(F)c(-c4cc(F)c5nc(C)n(C(C)C)c5c4)n3)nc2)CC1 + C=CC(=O)N1CCN(c2nc(OCC3CCCN3C)nc3c(F)c(-c4nc(N)cc(C)c4C(F)(F)F)c(Cl)cc23)C(C)C1
17

====

The reader will find reported viability, T/C values listed item by item below.
- System: 349418-098-R-PDC complex spheroid viability
- RUN_DESCRIPTION: Anticancer human tumor 349418-098-R-PDC cell line growth inhibition [RAS];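 also: spheroids exposed to compound for seven days before viability readout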
- CONDITION_LABEL: second compound 1 µM; first compound 0.1 µM; active compounds read low
Output spec: scalar in %, unitless text.

Worked examples follow.
COMPOUND: CC(Nc1ccc2c(c1)OCCn1cc(N3C(=O)OCC3C(F)F)nc1-2)C(N)=O (stereo not given) + C#Cc1c(F)ccc2cc(O)cc(-c3ncc4c(N5CC6CCC(C5)N6)nc(OCC56CCCN5CC(F)C6)nc4c3F)c12
READOUT_NAME: viability, T/C
UNITS: %
ASSAY_VALUE: 45.9

COMPOUND: O=C(c1ccc(F)c(F)c1Nc1ccc(I)cc1F)N1CC(O)([C@@H]2CCCCN2)C1 + C#Cc1c(F)ccc2cc(O)cc(-c3ncc4c(N5CC6CCC(C5)N6)nc(OCC56CCCN5CC(F)C6)nc4c3F)c12
READOUT_NAME: viability, T/C
UNITS: %
ASSAY_VALUE: 10.9

COMPOUND: NC1c2ccccc2OC12CCN(c1cnc3c(N4CCCc5ncccc54)n[nH]c3n1)CC2 (stereo not given) + C#Cc1c(F)ccc2cc(O)cc(-c3ncc4c(N5CC6CCC(C5)N6)nc(OCC56CCCN5CC(F)C6)nc4c3F)c12
READOUT_NAME: viability, T/C
UNITS: %
ASSAY_VALUE: 92.4

COMPOUND: CC(Nc1ccc2c(c1)OCCn1cc(N3C(=O)OCC3C(F)F)nc1-2)C(N)=O (stereo not given) + C=CC(=O)N1CCN(c2nc(OCC3CCCN3C)nc3c(F)c(-c4nc(N)cc(C)c4C(F)(F)F)c(Cl)cc23)C(C)C1
READOUT_NAME: viability, T/C
UNITS: %
ASSAY_VALUE: 57.3

# evaluate next
Returns the measured viability, T/C for the input compound. Input: C[C@@H](NC(=O)c1ncnc(N)c1Cl)c1ncc(C(=O)Nc2cc(C(F)(F)F)c(Cl)cn2)s1 + C#Cc1c(F)ccc2cc(O)cc(-c3ncc4c(N5CC6CCC(C5)N6)nc(OCC56CCCN5CC(F)C6)nc4c3F)c12
93.8

====

- Tested on: 349418-098-R-PDC complex spheroid viability
- RUN_DESCRIPTION: Anticancer human tumor 349418-098-R-PDC cell line growth inhibition [RAS];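 also: spheroids exposed to compound for seven days before viability readout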
- CONDITION_LABEL: second compound 0.316 µM; first compound 0.1 µM; active compounds read low
The reader will find reported viability, T/C values listed item by item below.
Output spec: scalar in %, unitless text.

Worked examples follow.
COMPOUND: CC(=O)OC12COC1CC(O)C1(C)C(=O)C(O)C3=C(C)C(OC(=O)C(O)C(NC(=O)OC(C)(C)C)c4ccccc4)CC(O)(C(OC(=O)c4ccccc4)C21)C3(C)C (centres undefined) + C=CC(=O)N1CCN(c2nc(OCC3CCCN3C)nc3c(F)c(-c4nc(N)cc(C)c4C(F)(F)F)c(Cl)cc23)C(C)C1
UNITS: %
ASSAY_VALUE: 18.1

COMPOUND: NC1c2ccccc2OC12CCN(c1cnc3c(N4CCCc5ncccc54)n[nH]c3n1)CC2 (centres undefined) + C#Cc1c(F)ccc2cc(O)cc(-c3ncc4c(N5CC6CCC(C5)N6)nc(OCC56CCCN5CC(F)C6)nc4c3F)c12
UNITS: %
ASSAY_VALUE: 120

COMPOUND: CC(Nc1ccc2c(c1)OCCn1cc(N3C(=O)OCC3C(F)F)nc1-2)C(N)=O (centres undefined) + C#Cc1c(F)ccc2cc(O)cc(-c3ncc4c(N5CC6CCC(C5)N6)nc(OCC56CCCN5CC(F)C6)nc4c3F)c12
UNITS: %
ASSAY_VALUE: 39.7

Returns the measured viability, T/C for the input compound. Input: NC1c2ccccc2OC12CCN(c1cnc3c(N4CCCc5ncccc54)n[nH]c3n1)CC2 (centres undefined) + C=CC(=O)N1CCN(c2nc(OCC3CCCN3C)nc3c(F)c(-c4nc(N)cc(C)c4C(F)(F)F)c(Cl)cc23)C(C)C1
92.7

Returns the measured viability, T/C for the input compound. Input: CC1(O)CCCC1n1c(=O)c(C(F)F)cc2cnc(NC3CCN(S(C)(=O)=O)CC3)nc21 (centres undefined) + C=CC(=O)N1CCN(c2nc(OCC3CCCN3C)nc3c(F)c(-c4nc(N)cc(C)c4C(F)(F)F)c(Cl)cc23)C(C)C1
43.1

Returns the measured viability, T/C for the input compound. Input: CC(C)NCC(C(=O)N1CCN(c2ncnc3c2C(C)CC3O)CC1)c1ccc(Cl)cc1 (centres undefined) + C#Cc1c(F)ccc2cc(O)cc(-c3ncc4c(N5CC6CCC(C5)N6)nc(OCC56CCCN5CC(F)C6)nc4c3F)c12
46.6

Returns the measured viability, T/C for the input compound. Input: CC(=O)OC12COC1CC(O)C1(C)C(=O)C(O)C3=C(C)C(OC(=O)C(O)C(NC(=O)OC(C)(C)C)c4ccccc4)CC(O)(C(OC(=O)c4ccccc4)C21)C3(C)C (centres undefined) + C#Cc1c(F)ccc2cc(O)cc(-c3ncc4c(N5CC6CCC(C5)N6)nc(OCC56CCCN5CC(F)C6)nc4c3F)c12
19.1

Returns the measured viability, T/C for the input compound. Input: C[C@@H](NC(=O)c1ncnc(N)c1Cl)c1ncc(C(=O)Nc2cc(C(F)(F)F)c(Cl)cn2)s1 + C#Cc1c(F)ccc2cc(O)cc(-c3ncc4c(N5CC6CCC(C5)N6)nc(OCC56CCCN5CC(F)C6)nc4c3F)c12
119

Returns the measured viability, T/C for the input compound. Input: CCC(CC)c1cc(NC2CCC(N)C2)n2nccc2n1 (centres undefined) + C#Cc1c(F)ccc2cc(O)cc(-c3ncc4c(N5CC6CCC(C5)N6)nc(OCC56CCCN5CC(F)C6)nc4c3F)c12
112
